Just for reference, patent US9855268B2 is where these values come from.

Molecular target: GCN2 (Homo sapiens, UniProt Q9P2K8)
Sequence (Q9P2K8 whole entry): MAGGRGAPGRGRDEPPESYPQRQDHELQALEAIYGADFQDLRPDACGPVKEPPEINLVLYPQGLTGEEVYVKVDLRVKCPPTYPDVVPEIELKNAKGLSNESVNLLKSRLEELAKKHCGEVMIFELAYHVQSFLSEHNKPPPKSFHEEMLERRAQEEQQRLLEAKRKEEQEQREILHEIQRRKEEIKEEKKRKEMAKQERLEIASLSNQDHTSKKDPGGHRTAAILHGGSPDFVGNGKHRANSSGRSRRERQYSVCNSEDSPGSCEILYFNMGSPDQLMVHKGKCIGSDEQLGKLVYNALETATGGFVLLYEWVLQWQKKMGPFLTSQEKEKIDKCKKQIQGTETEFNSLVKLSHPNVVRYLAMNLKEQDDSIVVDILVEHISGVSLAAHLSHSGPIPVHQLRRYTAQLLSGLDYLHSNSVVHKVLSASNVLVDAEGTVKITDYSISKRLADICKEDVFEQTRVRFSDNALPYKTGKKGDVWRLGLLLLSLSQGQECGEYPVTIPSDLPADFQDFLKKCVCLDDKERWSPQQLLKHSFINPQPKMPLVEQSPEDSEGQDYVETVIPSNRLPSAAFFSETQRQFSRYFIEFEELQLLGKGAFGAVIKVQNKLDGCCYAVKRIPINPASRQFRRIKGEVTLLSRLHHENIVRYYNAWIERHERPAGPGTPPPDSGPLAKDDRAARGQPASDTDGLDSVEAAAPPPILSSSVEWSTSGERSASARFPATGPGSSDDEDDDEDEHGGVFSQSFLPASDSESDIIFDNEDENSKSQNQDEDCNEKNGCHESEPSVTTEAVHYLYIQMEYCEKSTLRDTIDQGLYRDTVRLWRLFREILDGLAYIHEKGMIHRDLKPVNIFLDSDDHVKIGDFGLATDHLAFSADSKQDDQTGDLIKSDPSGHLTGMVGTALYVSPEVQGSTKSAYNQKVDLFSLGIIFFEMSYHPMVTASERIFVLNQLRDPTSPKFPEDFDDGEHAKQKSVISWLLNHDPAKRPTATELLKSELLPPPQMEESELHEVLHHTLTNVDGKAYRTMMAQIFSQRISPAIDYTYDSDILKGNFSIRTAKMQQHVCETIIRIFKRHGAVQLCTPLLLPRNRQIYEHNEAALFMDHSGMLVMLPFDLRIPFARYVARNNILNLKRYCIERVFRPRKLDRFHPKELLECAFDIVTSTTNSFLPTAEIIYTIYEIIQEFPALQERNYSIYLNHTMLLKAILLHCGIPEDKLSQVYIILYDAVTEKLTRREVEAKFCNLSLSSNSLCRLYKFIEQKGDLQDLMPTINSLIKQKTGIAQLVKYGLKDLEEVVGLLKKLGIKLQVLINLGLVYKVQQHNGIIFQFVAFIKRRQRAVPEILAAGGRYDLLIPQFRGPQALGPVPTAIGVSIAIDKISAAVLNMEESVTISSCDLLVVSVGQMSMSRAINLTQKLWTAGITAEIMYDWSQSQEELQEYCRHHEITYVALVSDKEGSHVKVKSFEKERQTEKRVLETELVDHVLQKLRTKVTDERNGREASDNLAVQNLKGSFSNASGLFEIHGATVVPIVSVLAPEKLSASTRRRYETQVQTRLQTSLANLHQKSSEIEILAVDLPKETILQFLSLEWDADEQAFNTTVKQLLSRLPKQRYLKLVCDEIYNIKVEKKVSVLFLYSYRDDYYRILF
Test: Cellular assay of GCN2 activity (phospho-eIF2alpha immunocytochemistry after tryptophanol)
Format: cell-based
Parameters: endogenous in cells; host or cells: U2OS
Details: Human U2OS cells, 2 h compound, 600 μM tryptophanol 30 min

Compound: Cc1ccc2cc(-n3nnc4cnc(N[C@@H]5CC[C@@H](C(=O)NCCN6CCN(C)CC6)C5)nc43)ccc2n1 [A250]
IC50: 1 to 5 µM
--
Compound: Cc1nc2ccc(-n3nnc4cnc(N[C@@H]5CC[C@H](C(N)=O)C5)nc43)cc2o1 [A141]
IC50: 5 to 10 µM
--
Compound: Cn1cc(-c2ccc(-n3nnc4cnc(N[C@@H]5CC[C@H](N)C5)nc43)cc2)cn1 [A118]
IC50: 1 to 5 µM
--
Compound: NC(=O)[C@@H]1CC[C@@H](Nc2ncc3nnn(-c4ccc(OCCN5CCOCC5)cc4)c3n2)C1 [A277]
IC50: 5 to 10 µM
--
Compound: CN1CCN(CCNC(=O)[C@H]2CC[C@@H](Nc3ncc4nnn(-c5ccc6ncccc6c5)c4n3)C2)CC1 [A242]
IC50: 1 to 5 µM
--
Compound: NC(=O)[C@@H]1CC[C@@H](Nc2ncc3nnn(-c4ccc(I)cc4)c3n2)C1 [A170]
IC50: 1 to 5 µM
--
Compound: Cc1nc2ccc(-n3nnc4cnc(N[C@@H]5CC[C@@H](C(N)=O)C5)nc43)cc2s1 [A147]
IC50: 1 to 5 µM
--
Compound: CCOCCn1cc(-c2ccc(-n3nnc4cnc(N[C@@H]5CC[C@@H](C(=O)NCCOC)C5)nc43)cc2)cn1 [A225]
IC50: 1 to 5 µM
--
Compound: NC(=O)[C@@H]1CC[C@@H](Nc2ncc3nnn(-c4ccc(OCCO)cc4)c3n2)C1 [A153]
IC50: 5 to 10 µM
--
Compound: COc1ccc(-n2nnc3cnc(N[C@@H]4CC[C@@H](C(=O)NCCN5CCN(C)CC5)C4)nc32)cc1 [A244]
IC50: < 1 µM
--
Compound: COCCn1cc(-c2ccc(-n3nnc4cnc(N[C@@H]5CC[C@@H](O)C5)nc43)cc2F)cn1 [A228]
IC50: 5 to 10 µM
--
Compound: CC(C)(O)Cn1cc(-c2ccc(-n3nnc4cnc(N[C@@H]5CC[C@@H](O)C5)nc43)cc2)cn1 [A232]
IC50: 5 to 10 µM
--
Compound: CN(C)CCC(=O)N1CC[C@@H](Nc2ncc3nnn(-c4ccc(-c5cnn(C)c5)cc4)c3n2)C1 [A130]
IC50: 5 to 10 µM
--
Compound: Cn1cc(-c2ccc(-n3nnc4cnc(N[C@@H]5CCNC5)nc43)cc2)cn1 [A116]
IC50: 5 to 10 µM
--
Compound: Cc1ccc2cc(-n3nnc4cnc(N[C@@H]5CC[C@@H](O)C5)nc43)ccc2n1 (relative stereo) [A202]
IC50: 1 to 5 µM
--
Compound: COc1ccc(-n2nnc3cnc(N[C@@H]4CC[C@@H](C(N)=O)C4)nc32)cc1C [A162]
IC50: 5 to 10 µM

====

Biological target: GSK3β(h) (Homo sapiens, UniProt P49841)
Sequence (P49841 whole entry): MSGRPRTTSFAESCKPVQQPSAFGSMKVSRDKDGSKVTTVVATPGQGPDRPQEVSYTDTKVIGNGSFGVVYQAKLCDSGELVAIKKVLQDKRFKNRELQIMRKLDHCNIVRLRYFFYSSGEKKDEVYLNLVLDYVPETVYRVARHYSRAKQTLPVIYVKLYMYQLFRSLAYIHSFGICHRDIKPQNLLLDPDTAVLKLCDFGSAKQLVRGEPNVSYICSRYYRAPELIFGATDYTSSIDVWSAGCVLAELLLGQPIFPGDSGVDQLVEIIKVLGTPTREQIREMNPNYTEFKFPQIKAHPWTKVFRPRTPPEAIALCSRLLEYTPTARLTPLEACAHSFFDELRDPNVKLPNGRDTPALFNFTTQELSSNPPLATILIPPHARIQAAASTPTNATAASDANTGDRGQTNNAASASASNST
pIC50: −log10 of the molar value.

Compound: COCCOc1ccc(-n2nnc3cnc(N[C@@H]4CC[C@@H](C#N)C4)nc32)cc1
System: GSK3β(h) (Homo sapiens, UniProt P49841)
pIC50: > 6.00
//
Compound: CC(C)(O)c1ccc(-n2nnc3cnc(N[C@@H]4CC[C@@H](C(N)=O)C4)nc32)cc1
System: GSK3β(h) (Homo sapiens, UniProt P49841)
pIC50: > 6.00
//
Compound: CCOCCn1cc(-c2ccc(-n3nnc4cnc(N[C@@H]5CC[C@@H](N)C5)nc43)cc2)cn1
System: GSK3β(h) (Homo sapiens, UniProt P49841)
pIC50: 5.30 to 6.00
//
Compound: COc1ccc(-n2nnc3cnc(N[C@@H]4CCN(C(N)=O)C4)nc32)cc1
System: GSK3β(h) (Homo sapiens, UniProt P49841)
pIC50: 5.30 to 6.00
//
Compound: OCCOc1ccc(-n2nnc3cnc(N[C@@H]4CC[C@@H](O)C4)nc32)cc1
System: GSK3β(h) (Homo sapiens, UniProt P49841)
pIC50: > 6.00
//
Compound: CCOc1ccc(-n2nnc3cnc(N[C@@H]4CC[C@@H](C(=O)NCC5CCN(C)CC5)C4)nc32)cc1
System: GSK3β(h) (Homo sapiens, UniProt P49841)
pIC50: > 6.00
//
Compound: CCOCCn1cc(-c2ccc(-n3nnc4cnc(N[C@@H]5CC[C@@H](C(=O)NCCO)C5)nc43)cc2)cn1
System: GSK3β(h) (Homo sapiens, UniProt P49841)
pIC50: > 6.00
//
Compound: CC(C)(CCO)Oc1ccc(-n2nnc3cnc(N[C@@H]4CC[C@@H](C(N)=O)C4)nc32)cc1
System: GSK3β(h) (Homo sapiens, UniProt P49841)
pIC50: > 6.00
//
Compound: Cc1ccc2cc(-n3nnc4cnc(N[C@@H]5CC[C@@H](C(N)=O)C5)nc43)ccc2n1
System: GSK3β(h) (Homo sapiens, UniProt P49841)
pIC50: > 6.00
//
Compound: Cc1ccc2cc(-n3nnc4cnc(N[C@@H]5CCC[C@@H](C(N)=O)C5)nc43)ccc2n1 (relative stereo)
System: GSK3β(h) (Homo sapiens, UniProt P49841)
pIC50: > 6.00
//
Compound: COc1ccc(-n2nnc3cnc(N[C@@H]4C=C[C@@H](C(N)=O)C4)nc32)cc1
System: GSK3β(h) (Homo sapiens, UniProt P49841)
pIC50: > 6.00
//
Compound: COCCn1cc(-c2ccc(-n3nnc4cnc(N[C@@H]5CC[C@@H](O)C5)nc43)cc2F)cn1
System: GSK3β(h) (Homo sapiens, UniProt P49841)
pIC50: > 6.00
//
Compound: COCCn1cc(-c2ccc(-n3nnc4cnc(N[C@@H]5CC[C@@H](C(N)=O)C5)nc43)cn2)cn1
System: GSK3β(h) (Homo sapiens, UniProt P49841)
pIC50: > 6.00
//
Compound: COCCn1cc(-c2ccc(-n3nnc4cnc(N[C@@H]5CC[C@@H](C(N)=O)C5)nc43)cc2F)cn1
System: GSK3β(h) (Homo sapiens, UniProt P49841)
pIC50: > 6.00
//
Compound: Cc1ccc2cc(-n3nnc4cnc(N[C@H]5CC[C@H](C(N)=O)C5)nc43)ccc2n1
System: GSK3β(h) (Homo sapiens, UniProt P49841)
pIC50: > 6.00
//
Compound: CCOc1ccc(-n2nnc3cnc(N[C@@H]4CC[C@@H](c5nnc(C)o5)C4)nc32)cc1
System: GSK3β(h) (Homo sapiens, UniProt P49841)
pIC50: > 6.00
//
Compound: Cc1ncc2cc(-n3nnc4cnc(N[C@@H]5CC[C@@H](O)C5)nc43)ccc2n1 (relative stereo)
System: GSK3β(h) (Homo sapiens, UniProt P49841)
pIC50: > 6.00
//
Compound: COCCn1cc(-c2ccc(-n3nnc4cnc(N[C@@H]5CC[C@@H](O)C5)nc43)cc2)cn1
System: GSK3β(h) (Homo sapiens, UniProt P49841)
pIC50: > 6.00
//
Compound: Cc1ccc2cc(-n3nnc4cnc(N[C@@H]5CC[C@@H](N)C5)nc43)ccc2n1
System: GSK3β(h) (Homo sapiens, UniProt P49841)
pIC50: 5.30 to 6.00
//
Compound: COc1ccc(-n2nnc3cnc(N[C@@H]4CCC[C@@H](C(N)=O)C4)nc32)cc1 (relative stereo)
System: GSK3β(h) (Homo sapiens, UniProt P49841)
pIC50: 5.30 to 6.00
//
Compound: Cc1ccc2cc(-n3nnc4cnc(N[C@@H]5CC[C@@H](C(=O)NCC6CCN(C)CC6)C5)nc43)ccc2n1
System: GSK3β(h) (Homo sapiens, UniProt P49841)
pIC50: > 6.00
//
Compound: Cc1nc2cc(-n3nnc4cnc(N[C@@H]5CC[C@@H](C(N)=O)C5)nc43)ccc2n1C
System: GSK3β(h) (Homo sapiens, UniProt P49841)
pIC50: > 6.00
//
Compound: NC(=O)[C@@H]1CC[C@@H](Nc2ncc3nnn(-c4ccc(OCC5CCNCC5)cc4)c3n2)C1
System: GSK3β(h) (Homo sapiens, UniProt P49841)
pIC50: > 6.00
//
Compound: CCOc1ccc(-n2nnc3cnc(N[C@@H]4CC[C@@H](C(N)=O)C4)nc32)nc1
System: GSK3β(h) (Homo sapiens, UniProt P49841)
pIC50: > 6.00
//
Compound: CCOc1ccc(-n2nnc3cnc(N[C@@H]4CC[C@@H](O)C4)nc32)cc1 (relative stereo)
System: GSK3β(h) (Homo sapiens, UniProt P49841)
pIC50: > 6.00
//
Compound: COCCn1cc(-c2ccc(-n3nnc4cnc(N[C@@H]5CC[C@@H](C(N)=O)C5)nc43)cc2)cn1
System: GSK3β(h) (Homo sapiens, UniProt P49841)
pIC50: > 6.00
//
Compound: Cc1nc2ccc(-n3nnc4cnc(N[C@@H]5CC[C@@H](C(N)=O)C5)nc43)cc2s1
System: GSK3β(h) (Homo sapiens, UniProt P49841)
pIC50: > 6.00
//
Compound: NC(=O)[C@@H]1CC[C@@H](Nc2ncc3nnn(-c4ccc(OC[C@H](O)C(F)(F)F)cc4)c3n2)C1
System: GSK3β(h) (Homo sapiens, UniProt P49841)
pIC50: > 6.00
//
Compound: Cc1ccc2cc(-n3nnc4cnc(N[C@@H]5CCN(C(=O)CCN6CCN(C)CC6)C5)nc43)ccc2n1
System: GSK3β(h) (Homo sapiens, UniProt P49841)
pIC50: 5.30 to 6.00
//
Compound: COCCNC(=O)[C@@H]1CC[C@@H](Nc2ncc3nnn(-c4ccc5nc(C)ccc5c4)c3n2)C1
System: GSK3β(h) (Homo sapiens, UniProt P49841)
pIC50: > 6.00
//
Compound: CC(C)Oc1ccc(-n2nnc3cnc(N[C@@H]4CC[C@@H](C(N)=O)C4)nc32)cc1
System: GSK3β(h) (Homo sapiens, UniProt P49841)
pIC50: > 6.00
//
Compound: COc1ccc(-n2nnc3cnc(N[C@@H]4CC[C@@H](C(N)=O)C4)nc32)cc1F
System: GSK3β(h) (Homo sapiens, UniProt P49841)
pIC50: > 6.00
